- Tested on: MV-4-11 (human, Acute Myeloid Leukemia cell line) cells
- test-summary: Cell growth inhibition assay, GI50 of MV-4-11
- Assay type: cell-based
- protocol-conditions: Homo sapiens, MV4-11, 72 h, MV-4-11 cells
Kindly supply the reported GI50 values for the records listed here.
Give bare numbers, in nM.

Previously resolved entries follow.
C=CCN1CC(=O)N2[C@@H](Cc3ccc(O)cc3)C(=O)N(Cc3cccc4c(-c5ccc(NC(=O)NC6CCCC6)cc5)cn(C)c34)C[C@@H]2N1C(=O)NCc1ccccc1 [Compound D-79]; 10.8
C=CCN1CC(=O)N2[C@@H](Cc3ccc(O)cc3)C(=O)N(Cc3cccc4c(-c5ccc(C(=O)N(C)CCN(C)C)cc5)cn(C)c34)C[C@@H]2N1C(=O)NCc1ccccc1 [Compound D-40]; 1.2

INPUT: Entry C=CCN1CC(=O)N2[C@@H](Cc3ccc(O)cc3)C(=O)N(Cc3cccc4c(-c5ccc(NC(=O)N6CC(N7CCC(OC)CC7)C6)cc5)cn(C)c34)C[C@@H]2N1C(=O)NCc1ccccc1 [Compound D-66-1] , system MV-4-11 (human, Acute Myeloid Leukemia cell line) cells: what GI50 was measured?
OUTPUT: 1.4

* * *

Kindly supply the reported IC50 values for the records listed here.
- assay-target: cDNA-expressed human hepatic CYP3A4 (Homo sapiens (Human))
- Sequence (P08684 whole entry): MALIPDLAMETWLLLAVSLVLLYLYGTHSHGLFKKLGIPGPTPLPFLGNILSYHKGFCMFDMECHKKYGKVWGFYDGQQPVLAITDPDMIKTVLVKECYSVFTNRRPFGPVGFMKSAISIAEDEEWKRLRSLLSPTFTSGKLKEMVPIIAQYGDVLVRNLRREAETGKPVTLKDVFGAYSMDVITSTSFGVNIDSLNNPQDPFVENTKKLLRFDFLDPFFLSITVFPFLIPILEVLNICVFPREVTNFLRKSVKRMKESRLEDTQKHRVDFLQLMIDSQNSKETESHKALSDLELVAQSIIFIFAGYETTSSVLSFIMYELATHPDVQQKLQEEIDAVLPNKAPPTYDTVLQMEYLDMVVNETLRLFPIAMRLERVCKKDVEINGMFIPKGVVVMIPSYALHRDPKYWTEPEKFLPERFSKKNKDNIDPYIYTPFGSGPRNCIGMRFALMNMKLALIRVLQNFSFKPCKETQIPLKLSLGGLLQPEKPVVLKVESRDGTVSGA
- test-summary: Measurement of CYP (IC50 of P450 CYP3A4), BFC substrate
- Assay type: in vitro ADME
- protocol-conditions: 20 minutes
Answers are plain numbers, in µM.

C=CCN1CC(=O)N2[C@@H](Cc3ccc(O)cc3)C(=O)N(Cc3cccc4c(C(=O)NC5CCN(C(=O)CCO)CC5)cn(C)c34)C[C@@H]2N1C(=O)NCc1ccccc1 [Compound F-65]; 6.87

Each of the following entries comes with a recorded value; kindly state IC50 for each.
1. C=CCN1CC(=O)N2C(Cc3ccc(O)cc3)C(=O)N(Cc3cccc4c(C(=O)Nc5ccc(N6CCC(N7CCCC7)CC6)nc5)cn(C)c34)CC2N1C(=O)NCc1ccccc1 (stereo not shown) [Compound G-51]
2. C=CCN1CC(=O)N2[C@@H](Cc3ccc(O)cc3)C(=O)N(Cc3cccc4c(C(=O)Nc5ccc(OCCCN6CCCCC6)nc5)cn(C)c34)C[C@@H]2N1C(=O)NCc1ccccc1 [Compound G-31]
3. C=CCN1CC(=O)N2C(Cc3ccc(O)cc3)C(=O)N(Cc3cccc4c(C(=O)Nc5ccc(NCCN(C(C)C)C(C)C)nc5)cn(C)c34)CC2N1C(=O)NCc1ccccc1 (stereo not shown) [Compound G-25]
4. C=CCN1CC(=O)N2[C@@H](Cc3ccc(O)cc3)C(=O)N(Cc3cccc4c(-c5ccc(NC(=O)N6CCOCC6)nc5)cn(C)c34)C[C@@H]2N1C(=O)NCc1ccccc1 [Compound D-88]
5. C=CCN1CC(=O)N2[C@@H](Cc3ccc(O)cc3)C(=O)N(Cc3cccc4c(-c5ccc(NC(=O)CCCCCCC)cc5)cn(C)c34)C[C@@H]2N1C(=O)NCc1ccccc1 [Compound D-52]
6. C=CCN1CC(=O)N2C(CN(Cc3cccc4c(C(=O)Nc5ccc(OC)nc5)cn(C)c34)C(=O)[C@@H]2Cc2ccc(O)cc2)N1C(=O)NCc1ccccc1 (stereo partly shown) [Compound G-5]
7. C=CCN1CC(=O)N2[C@@H](Cc3ccc(O)cc3)C(=O)N(Cc3cccc4c(C(=O)Nc5ccc(N6CCC(N7CCN(C)CC7)CC6)nc5)cn(C)c34)C[C@@H]2N1C(=O)NCc1ccccc1 [Compound G-57]

OUTPUT:
1: 3.97; 2: 7.67; 3: 4.05; 4: 10.2; 5: 21.7; 6: 2.16; 7: 6.32
